Entries annotated with measured growth inhibition
Protocol Description: NCI Yeast Anticancer Drug Screen. Data for the rad50 strain (AID 155);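 also: 0% = growth of vehicle-only cultures of the same strain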
Measurement Parameters: S. cerevisiae rad50 strain growth inhibition, hits give high values; at 50.0 µM unless noted
Compounds without any hit were thinned out: in the full panel of roughly 79,000, 15% have a hit.
Report only the number, with the unit % understood.

Examples with their reported growth inhibition follow.
• Cc1ccc(NC(=O)N(C)C)c(C)c1 = -36.7
• CC(C)C1=CCC2C(=C1)CCC1C(C)(N=C=O)CCCC21C (stereo unspecified) = -28.6
• COCc1cccc2ccnc(COC)c12 = -8.2
• C=C(C)[C@H]1CC(=O)[C@@]2(C)C[C@H]3O[C@]3(C)CC/C=C(\C)CC[C@H]12 = 20.2
• CC(=O)OCCc1cc2ccccc2oc1=O = -9.05

Query :: Give the measured growth inhibition of Nc1nc(CCc2ccc(NC(=O)CBr)cc2)c(CCCCc2ccccc2)c(=O)[nH]1 .
Result :: 16.4

Query :: Give the measured growth inhibition of CCCCC(/C=C(\C(C)=O)C(=O)OCC)CC (stereo unspecified) .
Result :: -5.95

Query :: Give the measured growth inhibition of CCc1cc(C)c(C)cc1O .
Result :: -28.8

Query :: Give the measured growth inhibition of Cc1cccc(C)c1NC(=O)CCc1nnc2s/c(=C\c3ccc(N(C)C)cc3)c(=O)n12 .
Result :: 29.8

Query :: Give the measured growth inhibition of CCCCNC(=O)/C(=C\c1ccc(OC)c(OC)c1)NC(=O)c1ccccc1 .
Result :: -63.5

Query :: Give the measured growth inhibition of NC(=O)C(NCc1ccccc1)c1ccccc1 (stereo unspecified) .
Result :: -2.65

###

Entries annotated with measured growth inhibition
Protocol Description: NCI Yeast Anticancer Drug Screen. Data for the rad50 strain (AID 155);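 also: 0% = growth of vehicle-only cultures of the same strain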
Measurement Parameters: S. cerevisiae rad50 strain growth inhibition, hits give high values; at 50.0 µM unless noted
The panel holds about 79,000 compounds, 15% with a hit somewhere; the sample as a whole holds those more often.
Report only the number, with the unit % understood.

Examples with their reported growth inhibition follow.
• Cc1ccc(NC(=O)CC/C(CC(=O)c2ccc(F)cc2)=N\NC(=O)C(=O)NN)cc1C = -11.3
• CCCCOC(c1ccccc1)c1ccccc1 = -19.8
• CCCCC(C(=O)CCC(=O)Nc1ccc(Cl)c(Cl)c1)C(=O)C(C)C (centres undefined) = -7
• O=c1oc(-c2ccccc2CCl)nc2ccccc12 = 0.95
• O=C(O)/C=C1\NC(=O)NC1=O = 16.1

Query :: Give the measured growth inhibition of CCOC(=O)C1(Cc2ccccc2)Cc2cc3c(cc2C1)CCC3 .
Result :: -23.1

###

Protocol Description: NCI Yeast Anticancer Drug Screen. Data for the rad50 strain (AID 155);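 also: 0% = growth of vehicle-only cultures of the same strain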
Measurement Parameters: S. cerevisiae rad50 strain growth inhibition; at 50.0 µM unless noted
This is part of a sample that, as a whole, favours compounds with a hit. Of some 79,000 tested, about 15% had one in any assay. Active and inactive are the calls of the source. No stated cut-off is given here; in the data, active means growth inhibition above about 70%; inactive means the rest.
Your response should consist of one outcome taken from active, inactive

Below, 5 molecules whose answers are already recorded.
• COc1ccc(N=C=Nc2ccc(OC)cc2)cc1 = inactive
• CCOC(=O)c1sc2c(c1OC(=O)c1ccc(OC)cc1)c(=O)n(-c1ccccc1)c(=S)n2-c1ccccc1 = inactive
• Clc1ccc2c(c1)C(=P(c1ccccc1)(c1ccccc1)c1ccccc1)c1cc(Cl)cc(Cl)c1-2 = active
• CCN(CC)CCNc1cc(OC)c(OC)cc1[N+](=O)[O-] = inactive
• Fc1ccccc1C1SCc2nc3cc4ccccc4cc3n21 (stereo not given) = inactive

Proceed to the following item.
Query :: # fetch the recorded call for O=C(O)c1ccccc1SCCO here
Result :: inactive

###

Protocol Description: NCI Yeast Anticancer Drug Screen. Data for the mec2-1 strain (AID 157)
Measurement Parameters: S. cerevisiae mec2-1 strain, hits give high values; at 50.0 µM unless noted
About 79,000 compounds went through this panel and 15% of them were active in at least one assay; those are over-represented in the sample as a whole.
Reported Metric: growth inhibition (%)
Report only the number, with the unit % understood.

Examples with their reported growth inhibition follow.
* Cc1cc(N(CCC#N)CCC#N)ccc1/C=C1/CN(N2C(=O)/C(=C/c3ccc(N(CCC#N)CCC#N)cc3C)N=C2c2ccccc2)C(c2ccccc2)=N1 | -25.4
* O=C(c1ccccc1)C1(c2ccccc2)OC1(C(=O)c1ccccc1)c1ccccc1 (stereo not drawn) | -4.75
* O=C(O)C[N-]CC(=O)O.OO.[O]=[V] | 1.5

Turning to the following compound.
Query :: Give the measured growth inhibition of CCC(CC)C(=O)OC1CCCCC1 .
Result :: 5.25

###

Protocol Description: NCI Yeast Anticancer Drug Screen. Data for the mlh1 rad18 strain (AID 175)
Measurement Parameters: S. cerevisiae mlh1 rad18 strain growth inhibition, hits give high values; at 50.0 µM unless noted
Compounds without any hit were thinned out: in the full panel of roughly 79,000, 15% have a hit.
Decide by growth inhibition: equal to or exceeding 20% means condition met, less means condition not met.

Below, 3 compounds whose answers are already recorded.
* COc1ccc2c(c1)OC[C@@H]1c3cc(NC(=O)c4ccccc4)c(OCc4ccccc4)cc3N(S(=O)(=O)c3ccccc3)[C@H]21 | condition not met
* CNC(=O)c1n[nH]nc1Sc1c([N+](=O)[O-])ncn1C | condition not met
* CCCCCCCCCCCCCCCCCC(=O)N1CCN(C(=O)CCCCCCCCCCCCCCCCC)C1 | condition not met

Query :: Textbook exercise: given the entry CCCCCN=C(N)C(N)=NCCCCC , state whether its growth inhibition is greater than or equal to 20%.
Result :: condition met

Query :: Textbook exercise: given the entry COC(=O)C1Cc2c([nH]c3ccccc23)C=N1 (stereo not given) , state whether its growth inhibition is greater than or equal to 20%.
Result :: condition met

###

Protocol Description: NCI Yeast Anticancer Drug Screen. Data for the cln2 rad14 strain (AID 165);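 also: 0% = growth equal to vehicle treated cultures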
Measurement Parameters: S. cerevisiae cln2 rad14 strain, hits give high values; at 50.0 µM unless noted
The panel holds about 79,000 compounds, 15% with a hit somewhere; the sample as a whole holds those more often.
Decide by growth inhibition: equal to or exceeding -20% means 1 (yes), less means 0 (no).

Below, 3 compounds whose answers are already recorded.
* Cc1cccc(NC(=O)Nc2ccccc2Cl)n1 | 1 (yes)
* Cc1ccc(C)c(NC(=O)NC(C)(C)C)c1 | 0 (no)
* COc1cc(/C=C/C(=O)c2sc(Nc3ccccc3)nc2C)ccc1O | 1 (yes)

Query :: Textbook exercise: given the entry CC(=O)OC1CCC2(C)C3CCC4(C)C(C(C)CCCC(C)C)CCC4C3C3CC32C1 (configuration not stated) , state whether its growth inhibition is greater than or equal to -20%.
Result :: 1 (yes)

Query :: Textbook exercise: given the entry Cc1ccc(OCCC(=O)N(C)C)cc1 , state whether its growth inhibition is greater than or equal to -20%.
Result :: 1 (yes)

Query :: Textbook exercise: given the entry COC1CN(C(C)(C)C)C1 , state whether its growth inhibition is greater than or equal to -20%.
Result :: 1 (yes)

Query :: Textbook exercise: given the entry CCOC(=O)C(NC(C)=O)(Nc1ccc(S(N)(=O)=O)cc1)C(F)(F)F (configuration not stated) , state whether its growth inhibition is greater than or equal to -20%.
Result :: 1 (yes)

Query :: Textbook exercise: given the entry CCC/C(=N\NC(=S)N1CCN(c2ccccn2)CC1)c1ccccn1 , state whether its growth inhibition is greater than or equal to -20%.
Result :: 1 (yes)

Query :: Textbook exercise: given the entry CCCCNC(=S)Nn1c(-c2ccccc2)nc2ccccc2c1=O , state whether its growth inhibition is greater than or equal to -20%.
Result :: 0 (no)

Query :: Textbook exercise: given the entry CN(N=O)C(=O)NCCn1cnc2c(=O)[nH]cnc21 , state whether its growth inhibition is greater than or equal to -20%.
Result :: 0 (no)

Query :: Textbook exercise: given the entry CCCCS(=O)/C=C\S(=O)CCCC (configuration not stated) , state whether its growth inhibition is greater than or equal to -20%.
Result :: 1 (yes)

Query :: Textbook exercise: given the entry COC(=O)CC1CCS(=O)(=O)C1 (configuration not stated) , state whether its growth inhibition is greater than or equal to -20%.
Result :: 0 (no)

###

Protocol Description: NCI Yeast Anticancer Drug Screen. Data for the rad50 strain (AID 155);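 also: 0% = growth of vehicle-only cultures of the same strain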
Measurement Parameters: S. cerevisiae rad50 strain growth inhibition, hits give high values; at 50.0 µM unless noted
About 79,000 compounds went through this panel and 15% of them were active in at least one assay; those are over-represented in the sample as a whole.
Reported Metric: growth inhibition (%)
Report only the number, with the unit % understood.

Query :: Give the measured growth inhibition of Cc1ccc(S(=O)(=O)CC(=O)NC(C)C)cc1 .
Result :: -3.9

Query :: Give the measured growth inhibition of c1ccc(OC2=NC3=S(S2)SC(Oc2ccccc2)=N3)cc1 .
Result :: 43.2

Query :: Give the measured growth inhibition of O=[N+]([O-])c1cccc(/C=C/c2ccnc3ccccc23)c1 .
Result :: 10.2

Query :: Give the measured growth inhibition of CCNC(=O)COc1ccc(Cl)c(C)c1 .
Result :: -13.6

Query :: Give the measured growth inhibition of Cc1ccc2c(c1)C1(c3ccc(Cl)cc3Cl)Oc3ccc(C)cc3C(c3ccc(Cl)cc3Cl)(O2)O1 .
Result :: -1.5

Query :: Give the measured growth inhibition of COc1ccc2c(c1)[n+](=O)c(C(=O)C/C(=N/NC(=O)c1ccccc1O)C(=O)Nc1ccc(Cl)c(C(F)(F)F)c1)c(C)n2[O-] .
Result :: 25.1
